abundance fitness overview
B1: CD2-associated protein, residues 271 to 331; numbered along this chain, Q9Y5K6 (parent)
chain: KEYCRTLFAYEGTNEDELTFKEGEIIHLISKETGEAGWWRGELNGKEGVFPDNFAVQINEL

# Variants of: B1
# assay.overview: abundance fitness (aPCA) (normalised: wild type 0, dead -1); higher = more abundant; growth selection in yeast, the domain comes from the species named
# experimental.context: Homo sapiens

construct.sequence	abundance fitness
KEYCITLFAYEGTNEDELTFKEGEIIHLISKETGEAGWWRGELNGKEGVFPDNFAVQINEL [R5I]	-0.527
KEYCRTLFAYEGTNEDELTFKEGEIIHLHSKETGEAGWWRGELNGKEGVFPDNFAVQINEL [I29H]	-0.56
KEYCRTLFAYEGTNEDELTFKEGEIIHLISKETGEAGWPRGELNGKEGVFPDNFAVQINEL [W39P]	-0.724
KEYCRTLFAYEGTNEDELTFKEGEIIHLISKETGEAGWWRGELQGKEGVFPDNFAVQINEL [N44Q]	-0.507
KEYCRTLFAYEGTNEDELTFKEGEIIHLISKETGEAGWWRGELNGKQGVFPDNFAVQINEL [E47Q]	0.014
KEYCRTLFALEGTNEDELTFKEGEIIHLISKETGEAGWWRGELNGKEGVFPDNFAVQINEL [Y10L]	-0.744
KEYCRTLFAYEGTNEDELTFKEGEIIHLISKETGEAGWWRGELNGKEGVFPDVFAVQINEL [N53V]	-0.185
KEYCRTLFYYEGTNEDELTFKEGEIIHLISKETGEAGWWRGELNGKEGVFPDNFAVQINEL [A9Y]	-0.309
KEYCRTLFAYEGTNEDELTFKEGEIIHLISKETGNAGWWRGELNGKEGVFPDNFAVQINEL [E35N]	0.002
KEYCRTLFAYEGTNEDELTFKEGVIIHLISKETGEAGWWRGELNGKEGVFPDNFAVQINEL [E24V]	-0.318
KEYCRTLFAYEGTNEDQLTFKEGEIIHLISKETGEAGWWRGELNGKEGVFPDNFAVQINEL [E17Q]	0.049
KEYCRTLFAYGGTNEDELTFKEGEIIHLISKETGEAGWWRGELNGKEGVFPDNFAVQINEL [E11G]	-0.384
KEYCRTLFAYEGTNEDMLTFKEGEIIHLISKETGEAGWWRGELNGKEGVFPDNFAVQINEL [E17M]	-0.362
KEYCRTLFAYEGTNEDELTFNEGEIIHLISKETGEAGWWRGELNGKEGVFPDNFAVQINEL [K21N]	-0.019
KEYCRTLFAYEGTNEDELTFKEGEIIHLISKETGEAGWWRGELNGKEGVFPDNFAVQIWEL [N59W]	-0.367
KEYCRTLFAYEGYNEDELTFKEGEIIHLISKETGEAGWWRGELNGKEGVFPDNFAVQINEL [T13Y]	-0.257
KEYCRTLFAYEGTNEDELTFKEGEIIHLISKETGEAGWWRGELNGKEGVFPDNFAVQIHEL [N59H]	-0.1
KEYCRTLFAYEGTNEDCLTFKEGEIIHLISKETGEAGWWRGELNGKEGVFPDNFAVQINEL [E17C]	-0.182
KEYCRTLFAYEGPNEDELTFKEGEIIHLISKETGEAGWWRGELNGKEGVFPDNFAVQINEL [T13P]	-0.594
KEYCRTLFAYEGTNEDELTFVEGEIIHLISKETGEAGWWRGELNGKEGVFPDNFAVQINEL [K21V]	-0.127
KEYCRTLFAYEGTNEDELTFKEGEIIHLISKETGEAGWWRGELNGKEAVFPDNFAVQINEL [G48A]	-0.65
KEYCRTLFAYEGTNEDELTFKEGEIIHLISKETGAAGWWRGELNGKEGVFPDNFAVQINEL [E35A]	0.055
KEYCRTLFAYEGTNEDELTFKEGEIIHLISKETGEALWWRGELNGKEGVFPDNFAVQINEL [G37L]	-0.884
KEYCRTLFAYEGTNEDELTFKEGEIIHLISKETGEAGWWRGELNGKEGVFPANFAVQINEL [D52A]	0.053
KEYCLTLFAYEGTNEDELTFKEGEIIHLISKETGEAGWWRGELNGKEGVFPDNFAVQINEL [R5L]	-0.383
KEYCRTLFAYEGTNEDELTFKEGEIIHLISKETGEAGWWRGELNGKEGVFPDNFAVQINEP [L61P]	0.215
KEYCRTLFAYEGTNEDELTFKEGEIIHLISKHTGEAGWWRGELNGKEGVFPDNFAVQINEL [E32H]	-0.202
KEYCRTLFAYEGTNEDELTFKEGEIIHLISKETGEAGWWRGILNGKEGVFPDNFAVQINEL [E42I]	-0.026
KEYCRTLFAYEGTNHDELTFKEGEIIHLISKETGEAGWWRGELNGKEGVFPDNFAVQINEL [E15H]	-0.004
KEYCRTLFAYEGTNEDELTFKEGEIIHLISKETGEAGWWRGELNGKEGVFPDRFAVQINEL [N53R]	0.038
KEYCRTLFAYEGTNEDELTKKEGEIIHLISKETGEAGWWRGELNGKEGVFPDNFAVQINEL [F20K]	-0.665
KEYCRTLFAYEGTNEDELTFKEGEDIHLISKETGEAGWWRGELNGKEGVFPDNFAVQINEL [I25D]	-0.285
KEYCRTLFAYEGTNEDELTFKEGEIIHLISLETGEAGWWRGELNGKEGVFPDNFAVQINEL [K31L]	-0.476
KEYCRTLFAYEGTNEDELTFKEGEIIHLISKETGEAGWWRGELNGKHGVFPDNFAVQINEL [E47H]	-0.154
KEYSRTLFAYEGTNEDELTFKEGEIIHLISKETGEAGWWRGELNGKEGVFPDNFAVQINEL [C4S]	-0.791
KEYCRTLFAYEGTNEDELTFKEGEIIHLISKETGEAGWWRLELNGKEGVFPDNFAVQINEL [G41L]	-0.747
KEYCRTLFAYEGTNEDELTFKEGEIIHLISKEFGEAGWWRGELNGKEGVFPDNFAVQINEL [T33F]	-0.32
KEYCRTLFAYEGTNEDELTFKEGEIIHLGSKETGEAGWWRGELNGKEGVFPDNFAVQINEL [I29G]	-0.713
KEYCRTLFAYEGTNEDELTFKEGEIIHLISKEMGEAGWWRGELNGKEGVFPDNFAVQINEL [T33M]	-0.468
KEYCRTLFAYEGTNEDELTFKEREIIHLISKETGEAGWWRGELNGKEGVFPDNFAVQINEL [G23R]	-0.57
KEYCRTLFAYEGTNEDELTFKEGEIIHLISKETGEAGWWIGELNGKEGVFPDNFAVQINEL [R40I]	-0.547
KEYCRTLFAYEGTNEDELTFKEGRIIHLISKETGEAGWWRGELNGKEGVFPDNFAVQINEL [E24R]	-0.782
KEYCRTLFAYEGTNEDELTFKEGEIIHLISKGTGEAGWWRGELNGKEGVFPDNFAVQINEL [E32G]	-0.261
KEYCRTLFAYEGTNEDELTFKEGEIIHLISKETGEAGWWRGQLNGKEGVFPDNFAVQINEL [E42Q]	-0.12
KEYCRTLFAYEGTNEDELTFKEGEIIHLISKETGEAGWWRGELNGKEGVFPDNSAVQINEL [F54S]	0.099
KEYCRTLFAYEGTNEDELTFKEGEIIHLISKETGEAGWWRGELNGKEGVFPDNFAVEINEL [Q57E]	-0.016
KEVCRTLFAYEGTNEDELTFKEGEIIHLISKETGEAGWWRGELNGKEGVFPDNFAVQINEL [Y3V]	-0.537
KEYCRTIFAYEGTNEDELTFKEGEIIHLISKETGEAGWWRGELNGKEGVFPDNFAVQINEL [L7I]	-0.021
KEYCRTLFAYEGTNEDELTFKEGEIIHLISKETGEAGWTRGELNGKEGVFPDNFAVQINEL [W39T]	-0.696
KEYCRTLFAYEGTNEDELTFKEGEIIHLISKETGEAGWWRGELNGKEGVFPSNFAVQINEL [D52S]	0.039
KEYCRTLFAYEGTNEDELTFKEGEIIHAISKETGEAGWWRGELNGKEGVFPDNFAVQINEL [L28A]	-0.812
KEYCRTLFAYEGTNEDELTFKDGEIIHLISKETGEAGWWRGELNGKEGVFPDNFAVQINEL [E22D]	-0.572
KEYCRTLFAYEGTNEDELTFKEGEIIHLISKETSEAGWWRGELNGKEGVFPDNFAVQINEL [G34S]	-0.014
KEYCRTLFAYEGTNEDELTFKEGEIIHLISWETGEAGWWRGELNGKEGVFPDNFAVQINEL [K31W]	-0.862
KEYCRTLFAYEGTNEDELTFKEGEIIHLFSKETGEAGWWRGELNGKEGVFPDNFAVQINEL [I29F]	-0.628
KEYCRTLFAYEGTNEDELTFKEGEIIHLISKETGEAGWWRGELNGKEGVFPDNFLVQINEL [A55L]	-0.573
KEYCRTLFAYEGTNEDELTFKEGYIIHLISKETGEAGWWRGELNGKEGVFPDNFAVQINEL [E24Y]	-0.77
KEYCRTLFAYEGTNEDELTFKEGEIIHLISKETGEAEWWRGELNGKEGVFPDNFAVQINEL [G37E]	-0.368
KEYCRTLFAYEGTNEDELTFKEGEIIHLISKETGEAGWWRGELNGKEGVFPDNFAVQINDL [E60D]	0.172
KEYCRTLFAYEGTNEDELTFKEGEIIHLISKETGEAGWWRGELPGKEGVFPDNFAVQINEL [N44P]	-1.14
KEYCRTLFAYEGTNEDELTFKEGEIIQLISKETGEAGWWRGELNGKEGVFPDNFAVQINEL [H27Q]	-0.021
KEYCRTLFAYEGTNEDELTFKEGEIIHLISKETGEAGWWRGELNGKEGVFLDNFAVQINEL [P51L]	-0.377
KEYFRTLFAYEGTNEDELTFKEGEIIHLISKETGEAGWWRGELNGKEGVFPDNFAVQINEL [C4F]	-0.007
KEYCRTLFAYEGFNEDELTFKEGEIIHLISKETGEAGWWRGELNGKEGVFPDNFAVQINEL [T13F]	-0.416
KEYCRTLFAYEGTNEDELTFKEGEIIHLISKETGEAGWWRGELNGVEGVFPDNFAVQINEL [K46V]	-0.033
KEYCRSLFAYEGTNEDELTFKEGEIIHLISKETGEAGWWRGELNGKEGVFPDNFAVQINEL [T6S]	-0.103
KEYCRTLFGYEGTNEDELTFKEGEIIHLISKETGEAGWWRGELNGKEGVFPDNFAVQINEL [A9G]	-0.283
KWYCRTLFAYEGTNEDELTFKEGEIIHLISKETGEAGWWRGELNGKEGVFPDNFAVQINEL [E2W]	-0.525
KEYCRTLFAYEGTNEDELTFKEGEIIHLISKETGEAGWWRGELNGKEGVFPDNFMVQINEL [A55M]	-0.886
KEYCRTLFAYEGTNEDELTFKEGEIIHLISKETGEAGWWRGELNHKEGVFPDNFAVQINEL [G45H]	-0.343
KEYCRTLFAYEGTNEDELTFKEGEIIHLISKETGEAGWWRGELNGKEGVFPDNFFVQINEL [A55F]	-0.492
EEYCRTLFAYEGTNEDELTFKEGEIIHLISKETGEAGWWRGELNGKEGVFPDNFAVQINEL [K1E]	-0.083
KEYCRYLFAYEGTNEDELTFKEGEIIHLISKETGEAGWWRGELNGKEGVFPDNFAVQINEL [T6Y]	-0.621
KEYCRTLFAYEGTNADELTFKEGEIIHLISKETGEAGWWRGELNGKEGVFPDNFAVQINEL [E15A]	-0.072
KEYCRTLFAYEGTNEDELTFKEGEIPHLISKETGEAGWWRGELNGKEGVFPDNFAVQINEL [I26P]	-0.803
KEYCRTLFAYEGTNEDELTFKEGEIIHLISKETGEAGWWRGELNGKRGVFPDNFAVQINEL [E47R]	-0.02
KEYCRTLFAYEGTNEDELTFKEGEIIHLISKETGEAGWWRGELNGKEGQFPDNFAVQINEL [V49Q]	-0.302
KEYCRTLFAYEGTNEDELTMKEGEIIHLISKETGEAGWWRGELNGKEGVFPDNFAVQINEL [F20M]	-0.714
KEYCRTLFAYEGTNEDELTFKEGEIIHLISKETGEAGWCRGELNGKEGVFPDNFAVQINEL [W39C]	-0.48
KEYCRTLFAYEGTNEDELTFKEGEIIHLISKETGEAGAWRGELNGKEGVFPDNFAVQINEL [W38A]	-0.502
KEYCRTLFAYEGGNEDELTFKEGEIIHLISKETGEAGWWRGELNGKEGVFPDNFAVQINEL [T13G]	-0.018
KEYCRTLFAYEGTNEDELTFKEGEIIHLISKETGEAGWWRGEQNGKEGVFPDNFAVQINEL [L43Q]	-0.682
KEYCRTLFAYEGTNEDELWFKEGEIIHLISKETGEAGWWRGELNGKEGVFPDNFAVQINEL [T19W]	-0.555

Taken from the Human Domainome abundance scans (Beltran et al. 2025).
